Consider the following molecules and their measured log10 IC50 readings.
- Tested on: TNF-α
- measurement-description: TNF-α production in PBMC (ELISA)
- Format: cell-based
- experimental-conditions: Homo sapiens, activator LPS, 48 h, read-out: TNF-α macrophage IC50
Heads up: the numbers are on a log10 scale; they represent IC50 in µM.

# count of solved cases: 5
| molecule | log10 IC50 |
| --- | --- |
| CCOC(=O)Nc1ccc(CN2N=C(c3ccc(OC)c(OCC)c3)CCC2=O)cc1 [EMD 94360] | -1.52 |
| CCOC(=O)Nc1ccc(C(=O)N2CCCC(c3ccc(OC)c(OCC)c3)=N2)cc1 [EMD 125059] | -1.52 |
| CCOc1cc(C2=NN(Cc3ccc(NC(=O)c4cccnc4)cc3)C(=O)SC2)ccc1OC [EMD 95832] | -2.05 |
| COc1ccc(C2CNC(=O)C2)cc1OC1CCCC1 (stereo not drawn) [Rolipram, reference compound] | -0.22 |
| CCOc1cc(C2=NN(C(=O)c3ccc(NC(=O)c4ccc(OC)cc4)cc3)CCC2)ccc1OC [EMD 219901] | -2.70 |

Note: attention shifts to another entry.
Asked: Read off the recorded log10 IC50 for CCOc1cc(C2=NN(C(=O)c3ccc(NC(=O)c4cccnc4)cc3)CCC2)ccc1OC [EMD 125025]
Given back: -2.52
